Measured glycan array binding signal (z-score) by item
Target: Gal(b1-4)GlcNAc(b1-6)[Gal(b1-3)]GalNAc
Assay: glycan array binding signal (z-score within array); higher = stronger binding
Conditions: glycan notation: IUPAC condensed, linker removed
This excerpt belongs to a sample that is enriched for the strongest signals.

| binder | glycan array binding signal (z-score) |
| --- | --- |
| EcCDA (Encephalitazoon cuniculi), Q8SU65 (protein) MLLCLLYFTSSWCSGSDVPDVCTNSGMIAINFVDGPVRGVTDRILNTLDELGVKATFSFTVNQKAVGNVGQLYRRAVEEGHNVALRVDPSMDEGYQCLSQDALENNVDREIDTIDGLSGTEIRYAAVPICNGQVNSEMYNILTERGVLPVGYTFCPYDYDDPVGEFESMIEGSDPKHHSFIILMHDGQEADTSRLENMVKIGKDKGYRFVNMDECLQGYKGAPGDPELSLRGKGVESIGKGFLPFFLMMLVRLL | -0.1 |
| Epa19 (Candida glabrata) (protein) MGSSHHHHHHSSGLVPRGSHMASSKDPTRFPIGCSPQVLKTQPGLAVKLYSYGHPVPGCSYITYQYPDFPRSGYKKERKLADITGVNGKIDIDLKPNDPCRVLTGHLPSNYNYPDTLTYTNFTMILYGYFQPKVTGYHTFNLEADDLLFMNLGAGNAFDCCKAESTLDNFGNYQSYSLWGSDYAKANITVFLVSGVYYPIRLFYVNRDNNAVIDFSFTTEFDKEKVHDFTSYFFSASDGEQCPGSV | 0.35 |
| Fm1D (Escherichia coli) (protein) FSCNVDGGSSIGAGTTSVYVNLDPVIQPGQNLVVDLSQHISCWNDYGGWYDTDHINLVQGSAFAGSLQSYKGSLYWNNVTYPFPLTTNTNVLDIGDKTPMPLPLKLYITPVGAAGGVVIKAGEVIARIHMYKIATLGSGNPRNFTWNIISNNSVVMPTHHHHHH | 10.7 |
| SSP1 (Sclerotinia sclerotiorum), XP_001584968 (protein) MGSSHHHHHHSSGLVPRGSHMSLLTTELACTSAPDQVLHLFFQDGQNILEARSPDGGNVWTTQDTIIAKDGDYNGSSMTCYYVDKDANFDNQPSIHLLYMNKDKQLTEKVKRMKGDNPIWEDAKVPDEVRKGPEQYSKLTSGSFNQGTGWNPNGSQWAYFSASKDGKMGIVEIRRTPKDPWHTETILEEKWGDELPGTALACVIGNGKIRVFLQHHDYSIILYENQNNTWHDRGTFIPKDKVQATTPLACTMTKDGSVHLFYVSKSNKIIHCTDGKKEEELINFFPGSKLGATSVENKITLFFRNLNPVNEVGTLENENGSWKHGTTVIPA | -0.405 |

Taken from the supplement of paper PMC8728848.
